Entry source: the supplement of paper PMC5940239

- Test system: Madurella mycetomatis MM55
- test-method-notes: IC90; higher = less potent
- run-parameters: 7 days
Quick rule for you: IC90 under 90 µM gets YES, anything else gets NO.

# example entries with known answers
COc1ccc(-c2onc(C(F)(F)F)c2-c2ccc(Cl)cc2)c(O)c1
YES
CCCCc1ccc(C(=O)Nc2nccc3ccccc23)nc1
YES
O=C(Nc1ccc(N2CCNCC2)nc1)c1oc(-c2ccccc2)nc1C(F)(F)F
YES
CC(C)(C)C1CCC(CC2=C(O)C(=O)c3ccccc3C2=O)CC1 (stereo unspecified)
NO
COc1cc(NC(C)CCCN)c2ncccc2c1 (stereo unspecified)
NO

Now take the following molecule into account.
Lab note: confirm whether the reported IC90 for this molecule is below 90 µM, equality not counting. molecule: O=C([C@@H](c1ccc(Cl)cc1)c1cccnc1)N1CCN(c2ccc(C(F)(F)F)cc2)CC1 YES
